Data origin: patent US20250115600A1

- system_tested: AKT1 E17K (Homo sapiens (Human), UniProt P31749, E17K)
- Sequence (P31749 whole entry E17K): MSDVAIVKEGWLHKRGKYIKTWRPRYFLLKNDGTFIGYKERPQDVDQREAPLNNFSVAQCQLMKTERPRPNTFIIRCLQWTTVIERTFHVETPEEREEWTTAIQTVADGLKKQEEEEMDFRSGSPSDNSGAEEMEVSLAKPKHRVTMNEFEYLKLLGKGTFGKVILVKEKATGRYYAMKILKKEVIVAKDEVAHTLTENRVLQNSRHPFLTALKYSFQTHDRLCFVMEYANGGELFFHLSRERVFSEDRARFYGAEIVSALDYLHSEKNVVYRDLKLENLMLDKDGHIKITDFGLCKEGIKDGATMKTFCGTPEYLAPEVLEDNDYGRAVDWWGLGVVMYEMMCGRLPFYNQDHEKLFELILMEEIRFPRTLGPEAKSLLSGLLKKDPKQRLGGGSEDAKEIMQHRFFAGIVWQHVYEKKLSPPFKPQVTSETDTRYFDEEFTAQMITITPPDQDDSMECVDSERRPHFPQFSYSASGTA
- test_description: Live cell target engagement (NanoBRET) in HEK293 cells
- Format: cell-based
readout_kind: AKT1 E17K IC50: Selectivity vs AKT2
Answer using only a numeral; do not append any unit.

Example compounds with recorded AKT1 E17K IC50: Selectivity vs AKT2:
In [3]: df
Out[3]:
                                   compound                         readout_kind  value_observed
0  Nc1ncccc1-c1nc2ccc(-c3ccccc3)nc2n1-c1ccc(CCNC(=O)c2ccc(C=O)c(O)c2)cc1  AKT1 E17K IC50: Selectivity vs AKT2             6.3
1  CC(=O)Nc1cc(CC(=O)NCc2ccc(-n3c(-c4cccnc4N)nc4cccnc43)cc2)ccc1C=O  AKT1 E17K IC50: Selectivity vs AKT2             120

## Task Entry `Nc1ncccc1-c1nc2ccc(-c3cccnc3)nc2n1-c1ccc(CNC(=O)Cc2ccc(C=O)c(O)c2F)cc1` has what AKT1 E17K IC50: Selectivity vs AKT2?
## Result 88

## Task Also check `CC(C)c1ccc2nc(-c3cccnc3N)n(-c3ccc(CNC(=O)Cc4ccc(C=O)c(O)c4)cc3)c2n1`
## Result 270

## Task Same lookup for `Nc1ncccc1-c1nc2ccc(-c3cccnc3)nc2n1-c1ccc(CNC(=O)C2(c3ccc(C=O)c(O)c3)CC2)cc1` , please.
## Result 65

## Task Continue with `Nc1ncccc1-c1nc2cccnc2n1-c1ccc(CNC(=O)Cc2ccc(C=O)c(O)c2F)cc1`
## Result 50

## Task // same read-out, input: `Nc1ncccc1-c1nc2cccnc2n1-c1ccc(CNC(=O)Cc2ccc(C=O)c(O)c2)cc1`
## Result 64

## Task Cool, now `Nc1ncccc1-c1nc2ccc(-c3ccccc3)nc2n1-c1ccc(CNC(=O)Cc2ccc(C=O)c(O)n2)cc1`
## Result 3.7

## Task And for `Nc1ncccc1-c1nc2ccc(-c3ccccc3)nc2n1-c1ccc(CNC(=O)C2(c3ccc(C=O)c(O)c3F)CC2)cc1` ?
## Result 39

## Task Also need CC(NCCc1ccc(O)c(C=O)c1)c1ccc(-n2c(-c3cccnc3N)nc3ccc(-c4ccccc4)nc32)cc1 (stereo not shown) , thanks.
## Result 12

## Task Would you kindly repeat that for `Nc1ncccc1-c1nc2ccc(-c3ccccc3)nc2n1-c1ccc(CN2CCC(c3ccc(O)c(C=O)c3)CC2)cc1` ?
## Result 1.9

## Task // same read-out, input: `Nc1ncccc1-c1nc2cccnc2n1-c1ccc(CNC(=O)c2ccc(C=O)c(O)c2)cc1`
## Result 4.8

## Task Ok, now `Nc1ncccc1-c1nc2ccc(-c3cccc(N4CCOCC4)c3)nc2n1-c1ccc(CNC(=O)Cc2ccc(C=O)c(O)c2)cc1`
## Result 6.8

## Task // query: `Nc1ncccc1-c1nc2ccc(-c3ccc(N4CCOCC4)cc3)nc2n1-c1ccc(CNC(=O)Cc2ccc(C=O)c(O)c2)cc1`
## Result 85

## Task Then what about the compound `Nc1ncccc1-c1nc2ccc(-c3ccccc3)nc2n1-c1ccc(C(=O)NCCc2ccc(C=O)c(O)c2)cc1` ?
## Result 13

---

- system_tested: AKT1 E17K (Homo sapiens (Human), UniProt P31749, E17K)
- test_description: Live cell target engagement (NanoBRET) in HEK293 cells
- Assay type: cell-based
readout_kind: AKT1 E17K IC50: Selectivity vs AKT1 WT
Would you mind answering with just the numeric figure?

In [3]: df
Out[3]:
                                   compound  value_observed
0  Nc1ncccc1-c1nc2ccc(-c3cccc(N4CCC(N5CCCC5=O)CC4)c3F)nc2n1-c1ccc(CNC(=O)Cc2ccc(C=O)c(O)c2)cc1             1.7
1  Nc1ncccc1-c1nc2ccc(-c3cccnc3)nc2n1-c1ccc(CNC(=O)C2(c3ccc(C=O)c(O)c3F)CC2)cc1              27
2  Nc1ncccc1-c1nc2cccnc2n1-c1ccc(CNC(=O)c2ccc(O)c(C=O)c2)cc1              10
3  CC(C(=O)NCc1ccc(-n2c(-c3cccnc3N)nc3ccc(-c4ccccc4)nc32)cc1)c1ccc(C=O)c(O)c1 (stereo not shown)              11

## Task Which AKT1 E17K IC50: Selectivity vs AKT1 WT value is on record for `Nc1ncccc1-c1nc2ccc(-c3ccccc3)nc2n1-c1ccc(CC(=O)NCc2ccc(C=O)c(O)c2)cc1` ?
## Result 8.6

## Task How about CC(NC(=O)Cc1ccc(O)c(C=O)c1)c1ccc(-n2c(-c3cccnc3N)nc3ccc(-c4ccccc4)nc32)cc1 (stereo not shown) ?
## Result 1.2

## Task What do we get for Nc1ncccc1-c1nc2ccc(-c3ccccc3)nc2n1-c1ccc(C(CO)NC(=O)Cc2ccc(C=O)c(O)c2F)cc1 (stereo not shown) ?
## Result 1.9
